# System: Tyrosine-protein kinase ABL1 (Homo sapiens), P00519 [M351T]
# ASSAY_CONDITIONS: at 1 µM
MEASURED_METRIC: inhibition (%)

SMILES	TESTED_TARGET	MEASURED_METRIC	UNIT_SYMBOL	RESULT_VALUE
c1ccc(-c2n[nH]cc2-c2ccnc(-c3ccc(OCCN4CCOCC4)cc3)c2)nc1	Tyrosine-protein kinase ABL1 (Homo sapiens), P00519 [M351T]	inhibition	%	69.1
CCc1cccc(CC)c1/C=C/c1cncc(C(=O)NC)c1	Tyrosine-protein kinase ABL1 (Homo sapiens), P00519 [M351T]	inhibition	%	32.1
Fc1ccc(-c2ncn(C3CCNCC3)c2-c2ccnc(Oc3ccc(F)c(F)c3)n2)cc1	Tyrosine-protein kinase ABL1 (Homo sapiens), P00519 [M351T]	inhibition	%	-0.02
Fc1ccc(-c2ncn(C3CCNCC3)c2-c2ccnc(Oc3ccc(Oc4ccccc4)cc3)n2)cc1	Tyrosine-protein kinase ABL1 (Homo sapiens), P00519 [M351T]	inhibition	%	0.05
O=C(NCC1CC1)c1ccc(-c2cccc(C(=O)NC3CC3)c2)cc1	Tyrosine-protein kinase ABL1 (Homo sapiens), P00519 [M351T]	inhibition	%	4.08
O=C(Nc1n[nH]c2cc(-c3cc(F)ccc3F)ccc12)C1CC1	Tyrosine-protein kinase ABL1 (Homo sapiens), P00519 [M351T]	inhibition	%	53.8
COc1cc(Nc2ncc3c(C)nc(-c4cccc(C(F)(F)F)c4)n3n2)cc(OC)c1OC	Tyrosine-protein kinase ABL1 (Homo sapiens), P00519 [M351T]	inhibition	%	10.8
CNC(=O)c1cncc(/C=C/c2c(C)cccc2C)c1	Tyrosine-protein kinase ABL1 (Homo sapiens), P00519 [M351T]	inhibition	%	63.8
CS(=O)(=O)CCNCc1cc(-c2cc3c(Nc4ccc(OCc5cccc(F)c5)c(Cl)c4)ncnc3s2)cs1	Tyrosine-protein kinase ABL1 (Homo sapiens), P00519 [M351T]	inhibition	%	5.07
COc1cc(N2CCN(C(C)C)CC2)ccc1Nc1nc(Nc2ccc(F)cc2C(=O)NC[C@@H](O)CO)c2cc[nH]c2n1	Tyrosine-protein kinase ABL1 (Homo sapiens), P00519 [M351T]	inhibition	%	5.84
FC(F)(F)c1cccc(Nc2nccc(-c3cnn4nc(-c5ccccc5)ccc34)n2)c1	Tyrosine-protein kinase ABL1 (Homo sapiens), P00519 [M351T]	inhibition	%	2.9
CN(C)c1ccc2c(c1)/C(=C/Nc1ccc(S(N)(=O)=O)cc1)C(=O)N2	Tyrosine-protein kinase ABL1 (Homo sapiens), P00519 [M351T]	inhibition	%	15.8
CCN(CC)Cc1ccc(Nc2nccc(-c3cnn4ncccc34)n2)cc1	Tyrosine-protein kinase ABL1 (Homo sapiens), P00519 [M351T]	inhibition	%	37.4
CN1CCN(CCCNc2nc3ccc(Oc4ccc(NC(=O)Nc5cc(C(F)(F)F)ccc5F)cc4)cc3[nH]2)CC1	Tyrosine-protein kinase ABL1 (Homo sapiens), P00519 [M351T]	inhibition	%	45.5
CN(c1ccc(NC(=O)Nc2c(Cl)cccc2Cl)cc1)c1ccnc(Nc2cccc(CS(C)(=O)=O)c2)n1	Tyrosine-protein kinase ABL1 (Homo sapiens), P00519 [M351T]	inhibition	%	81.9
CS(=O)(=O)CCNCc1ccc(-c2ccc3ncnc(Nc4ccc(OCc5ccccc5)c(Br)c4)c3c2)o1	Tyrosine-protein kinase ABL1 (Homo sapiens), P00519 [M351T]	inhibition	%	2.04
CCS(=O)(=O)c1ccc(OC)c(Nc2ncc(-c3cccc(-c4ccccc4F)c3)o2)c1	Tyrosine-protein kinase ABL1 (Homo sapiens), P00519 [M351T]	inhibition	%	86.9
COc1ccc(C2=C(N3CCc4ccccc43)C(=O)NC2=O)cc1	Tyrosine-protein kinase ABL1 (Homo sapiens), P00519 [M351T]	inhibition	%	7.03
CCC(=O)Nc1ccc(C)c(-c2ccc(C(=O)NCC3CC3)cc2)c1	Tyrosine-protein kinase ABL1 (Homo sapiens), P00519 [M351T]	inhibition	%	1.29
Fc1ccc(-c2ncn(C3CCNCC3)c2-c2ccnc(Oc3ccc4c(c3)OCO4)n2)cc1	Tyrosine-protein kinase ABL1 (Homo sapiens), P00519 [M351T]	inhibition	%	3.88
c1ccc(Oc2ccc(Nc3ncc(-c4ccccc4)o3)cc2)cc1	Tyrosine-protein kinase ABL1 (Homo sapiens), P00519 [M351T]	inhibition	%	1.33
O=C1Nc2ccccc2/C1=C/Nc1ccc(-n2cncn2)cc1	Tyrosine-protein kinase ABL1 (Homo sapiens), P00519 [M351T]	inhibition	%	14.5
O=C(Nc1n[nH]c2nc(-c3ccco3)ccc12)C1CC1	Tyrosine-protein kinase ABL1 (Homo sapiens), P00519 [M351T]	inhibition	%	15
Fc1ccc(-c2ncn(CCCN3CCOCC3)c2-c2ccncc2)cc1	Tyrosine-protein kinase ABL1 (Homo sapiens), P00519 [M351T]	inhibition	%	1.4
NS(=O)(=O)c1ccc(Nc2cc(-c3ccc(O)c(F)c3)n[nH]2)cc1	Tyrosine-protein kinase ABL1 (Homo sapiens), P00519 [M351T]	inhibition	%	30.5
NC(=O)c1cc(-c2ccc(F)cc2)cc(-c2ccncc2)c1N	Tyrosine-protein kinase ABL1 (Homo sapiens), P00519 [M351T]	inhibition	%	2.85
COc1cc2ncn(-c3cc(OCc4ccccc4C(F)(F)F)c(C(C)=O)s3)c2cc1OC	Tyrosine-protein kinase ABL1 (Homo sapiens), P00519 [M351T]	inhibition	%	6.24
Cc1nnc(-c2ccc(C)c(-c3ccc(C(=O)NCc4ccc(Cl)cc4)cc3)c2)o1	Tyrosine-protein kinase ABL1 (Homo sapiens), P00519 [M351T]	inhibition	%	1.63
N#Cc1ccc(Oc2nccc(-c3c(-c4ccc(F)cc4)ncn3C3CCNCC3)n2)cc1	Tyrosine-protein kinase ABL1 (Homo sapiens), P00519 [M351T]	inhibition	%	4.25
NS(=O)(=O)c1ccc(N/N=C2\C(=O)Nc3ccc(-c4cnco4)cc32)cc1	Tyrosine-protein kinase ABL1 (Homo sapiens), P00519 [M351T]	inhibition	%	17.7
